Ref: patent US11970479B2

For each entry below, report its pEC50 value.
Biological target: human M4 muscarinic acetylcholine receptor (Homo sapiens, UniProt P08173)
Construct: expressed in transfected cells
Assay: human FLIPR-based M4 PAM assay (CHO-K1 cells with human M4 receptor and Gαqi5, calcium dye fluorescence, EC20 acetylcholine)
Assay type: cell-based
Details: inflection point (IP) of the dose response curve, human M4 receptor/Gαqi5, acetylcholine at 20% of maximum response, read-out: M4PAM Hu IP
One number for each entry, as −log10 of the molar value.

Known results for compounds:
{"Compound": "COc1cc2ccc(-c3nc(C#N)ccc3-c3cnn(CC4(CC#N)CC4)c3)cc2nn1", "pEC50": 6.81}
{"Compound": "COc1cc2ccc(-c3nc(C)ccc3-c3cnn(CC45CC(C4)C5)c3)cc2nn1", "pEC50": 7.70}
{"Compound": "COc1cc2ccc(-c3nc(C#N)ccc3-c3cnn(CC4(C(F)(F)F)CC4)c3)cc2nn1", "pEC50": 7.22}
{"Compound": "CC(C)C(=O)Cn1cc(-c2ccc(C#N)nc2-c2ccc3cccnc3c2)cn1", "pEC50": 6.74}
{"Compound": "Cc1ccc(-c2cnn(CC34CCC(CC3)CC4)c2)c(-c2ccc3cccnc3c2)n1", "pEC50": 7.70}
{"Compound": "Cc1ccc(-c2cnn(CC3CCC(F)CC3)c2)c(-c2ccc3cccnc3c2)n1 (stereo not shown)", "pEC50": 7.06}

Field: pEC50. Fill in for each record below.
1. COc1cc2ccc(-c3nc(C)ccc3-c3cnn(CC4(C)CC4)c3)cc2nn1
2. CC(C)CCn1cc(-c2ccc(F)nc2-c2ccc3cccnc3c2)cn1
3. COc1cc2ccc(-c3nc(C)ccc3-c3cnn(CCC(C)(C)C#N)c3)cc2nn1
4. COc1ccnc(-c2ccc3cccnc3c2)c1-c1cnn(CCC(C)C)c1
5. COc1ccc(-c2cnn(CCC(C)C)c2)c(-c2ccc3cccnc3c2)n1
6. CSc1cnc(-c2ccc3cccnc3c2)c(-c2cnn(CCC(C)C)c2)c1
7. CC(C)C(O)Cn1cc(-c2ccc(C#N)nc2-c2ccc3cccnc3c2)cn1 (stereo not shown)

(A)
7.15
7.02
6.70
6.38
6.66
7.20
6.77

Field: pEC50. Fill in for each record below.
1. COc1cc2ccc(-c3nc(C)ccc3-c3cnn(CC4(C)CCOC4)c3)cc2nn1 (single isomer, unassigned) [Example 99]
2. Cc1ccc(-c2cnn(CC3(C)CCCCC3)c2)c(-c2ccc3cc(C(F)(F)F)cnc3c2)n1
3. Cc1ccc(-c2cnn(CCC(C)(C)F)c2)c(-c2ccc3cccnc3c2)n1

(A)
1: 6.77; 2: 6.86; 3: 7.15

Field: pEC50. Fill in for each record below.
1. c1cnc(-c2ccc3cccnc3c2)c(-c2cnn(CCC3CCC3)c2)c1
2. Cc1ccc(-c2cnn(CC3CCC(F)(F)CC3)c2)c(-c2ccc3cccnc3c2)n1
3. CC(C)CCn1cc(-c2c(Cl)ccnc2-c2ccc3cccnc3c2)cn1
4. COc1cc2ccc(-c3nc(C)ccc3-c3cnn(CC4(C)CCOC4)c3)cc2nn1 (single isomer, unassigned) [Example 98]

(A)
1. 6.80
2. 6.91
3. 6.53
4. 7.24

Field: pEC50. Fill in for each record below.
1. CC(C)CCn1cc(-c2cc(Cl)cnc2-c2ccc3cccnc3c2)cn1
2. CC(C)CCn1cc(-c2ccc(C#N)nc2-c2ccc3cccnc3c2)cn1
3. CC(C)(CO)Cn1cc(-c2ccc(C#N)nc2-c2ccc3cccnc3c2)cn1
4. C=Cc1ccc(-c2cnn(CCC(C)C)c2)c(-c2ccc3cccnc3c2)n1
5. COc1cc2ccc(-c3nc(C)ccc3-c3cnn(CC(C)(C)C#N)c3)cc2nn1
6. CC(C)(O)C(F)(F)Cn1cc(-c2ccc(C#N)nc2-c2ccc3cccnc3c2)cn1
7. N#Cc1ccc(-c2cnn(CC3(C(F)F)CC3)c2)c(-c2ccc3cccnc3c2)n1
8. Cc1ccc(-c2cnn(CC3(C)CCC(F)(F)CC3)c2)c(-c2ccc3cccnc3c2)n1

(A)
6.84
7.62
6.86
6.72
6.70
6.98
7.48
7.62

Field: pEC50. Fill in for each record below.
1. N#Cc1ccc(-c2cnn(CC3(C(F)(F)F)CC3)c2F)c(-c2ccc3cccnc3c2)n1
2. CC(C)(C)Cn1ncc(-c2ccc(C#N)nc2-c2ccc3cccnc3c2)c1F
3. CC(C)CCn1cc(-c2ccc(-c3ccnn3C)nc2-c2ccc3cccnc3c2)cn1
4. CC(C)(C)Cn1cc(-c2ccc(C#N)nc2-c2ccc3cccnc3c2)cn1
5. COc1cc2ccc(-c3nc(C)c(C#N)cc3-c3cnn(CC4(C(F)(F)F)CC4)c3)cc2nn1
6. COCCOc1ccc(-c2cnn(CCC(C)C)c2)c(-c2ccc3cccnc3c2)n1

(A)
[7.24, 7.29, 6.93, 7.60, 6.61, 6.91]

====

For each entry below, report its pEC50 value.
Biological target: human M4 muscarinic acetylcholine receptor (Homo sapiens, UniProt P08173)
Sequence (P08173 1-479): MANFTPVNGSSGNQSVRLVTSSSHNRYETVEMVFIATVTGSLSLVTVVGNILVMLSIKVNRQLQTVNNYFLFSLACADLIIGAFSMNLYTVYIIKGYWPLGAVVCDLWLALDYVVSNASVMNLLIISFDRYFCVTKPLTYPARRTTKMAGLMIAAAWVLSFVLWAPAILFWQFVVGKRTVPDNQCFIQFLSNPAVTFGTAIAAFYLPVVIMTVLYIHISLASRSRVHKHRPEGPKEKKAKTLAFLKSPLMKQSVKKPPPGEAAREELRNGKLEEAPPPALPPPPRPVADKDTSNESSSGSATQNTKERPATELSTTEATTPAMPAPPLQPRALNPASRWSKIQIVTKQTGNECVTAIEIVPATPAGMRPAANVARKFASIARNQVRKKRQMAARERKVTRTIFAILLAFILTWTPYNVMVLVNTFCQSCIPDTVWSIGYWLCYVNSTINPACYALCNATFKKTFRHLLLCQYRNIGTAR
Assay: human FLIPR-based M4 PAM assay (CHO-K1 cells with human M4 receptor and Gαqi5, calcium dye fluorescence, EC20 acetylcholine)
Conditions: inflection point (IP) of the dose response curve, human M4 receptor/Gαqi5, acetylcholine at 20% of maximum response, read-out: M4PAM Hu IP
One number for each entry, as −log10 of the molar value.

Known results for compounds:
{"Compound": "CC(C)Cn1cc(-c2ccc(C#N)nc2-c2ccc3cccnc3c2)cn1 [Example 110]", "Reported": 6.89}
{"Compound": "CC(C)(C)Cn1cc(-c2ccc(C#N)nc2-c2ccc3cc(F)cnc3c2)cn1 [Example 41]", "Reported": 7.41}
{"Compound": "Cc1nc(-c2ccc3cccnc3c2)c(-c2cnn(CC3(C(F)(F)F)CC3)c2)cc1C#N [Example 56]", "Reported": 6.56}
{"Compound": "N#Cc1ccc(-c2cnn(CC3(F)CCC3)c2)c(-c2ccc3cccnc3c2)n1 [Example 116]", "Reported": 7.41}
{"Compound": "COc1cc2ccc(-c3nc(C#N)ccc3-c3cnn(CC4CC4(C)C)c3)cc2nn1 (stereo not drawn) [Example 102]", "Reported": 7.04}
{"Compound": "COc1cc2ccc(-c3nc(C)c(C)cc3-c3cnn(CCC(C)(C)OC)c3)cc2nn1 [Example 34]", "Reported": 6.85}

Field: pEC50. Fill in for each record below.
1. Cc1ccc(-c2cnn(Cc3ccccc3F)c2)c(-c2ccc3cccnc3c2)n1 [Example 20]
2. COc1cc2ccc(-c3nc(C)ccc3-c3cnn(CC4(C)CCC(F)(F)CC4)c3)cc2nn1 [Example 22]
3. N#Cc1ccc(-c2cnn(CC3(C(F)(F)F)CC3)c2)c(-c2ccc3cccnc3c2)n1 [Example 44]
4. N#Cc1nc(-c2ccc3cccnc3c2)c(-c2cnn(CC3(C(F)(F)F)CC3)c2)cc1F [Example 47]

(A)
7.04
7.80
7.21
7.06

Field: pEC50. Fill in for each record below.
1. COc1cc2ccc(-c3nc(C)ccc3-c3cnn(CC4(C)CCC4)c3)cc2nn1 [Example 25]
2. COc1cc2ccc(-c3nc(C)ccc3-c3cnn(Cc4ccccc4F)c3)cc2nn1 [Example 21]
3. COc1cc2ccc(-c3nc(C)ccc3-c3cnn(CC4(C)CCCO4)c3)cc2nn1 (stereo not drawn) [Example 23]

(A)
1: 7.34; 2: 7.21; 3: 6.95

Field: pEC50. Fill in for each record below.
1. COc1cc2ccc(-c3nc(C)ccc3-c3cnn(CC4CCCCC4)c3)cc2nn1 [Example 107]
2. COc1cc2ccc(-c3nc(Cl)c(C)cc3-c3cnn(CCC(C)(C)OC)c3)cc2nn1 [Example 30]
3. c1cnc(-c2ccc3cccnc3c2)c(-c2cnn(CC3CCCCC3)c2)c1 [Example 106]
4. COc1cc2ccc(-c3ncccc3-c3cnn(CC4(C)CCCCC4)c3)cc2nn1 [Example 1]
5. CC(C)CCn1cc(-c2ccc(Cl)nc2-c2ccc3cccnc3c2)cn1 [Example 63]

(A)
7.80
6.84
7.03
7.66
7.59

Field: pEC50. Fill in for each record below.
1. COc1cc2ccc(-c3nc(C)ccc3-c3cnn(CC4(F)CCCCC4)c3)cc2nn1 [Example 86]
2. CC(C)(C)Cn1cc(-c2cc(F)cnc2-c2ccc3cccnc3c2)cn1 [Example 55]
3. Cc1ccc(-c2cnn(CCC(C)C(F)(F)F)c2)c(-c2ccc3cccnc3c2)n1 (stereo not drawn) [Example 11]

(A)
1. 7.16
2. 6.97
3. 7.05
